Test system: E. faecalis ATCC 10541
Assay: Checkerboard microdilution MIC with PFOB, Table 2
Format: cell-based
Settings: E. faecalis ATCC 10541; PFOB 16 mg/L
Description: The aim of the study was to detect any synergy between PFOB and the other antibiotics. For the purposes of the study, synergy was defined in accordance with the FIC (fractional inhibitory concentration) index, as disclosed by Lorian (1991, In “Antibiotics in Laboratory Medicine” 3rd edition, Eds. Williams & Wilkins; esp. p 434-443).
Recorded Endpoint: MIC of partner antibiotic in the presence of PFOB at 16 mg/L (µg/mL)
One number for each entry, in µg/mL.

Answered examples (3):
CC(C)(O/N=C(\C(=O)N[C@@H]1C(=O)N2C(C(=O)[O-])=C(C[n+]3ccccc3)CS[C@H]12)c1csc(N)n1)C(=O)O : 4
CC1(C)S[C@@H]2[C@H](NC(=O)[C@H](N)c3ccccc3)C(=O)N2[C@H]1C(=O)O : 0.06
CN[C@H](CC(C)C)C(=O)N[C@H]1C(=O)N[C@@H](CC(N)=O)C(=O)N[C@H]2C(=O)N[C@H]3C(=O)N[C@H](C(=O)N[C@H](C(=O)O)c4cc(O)cc(O)c4-c4cc3ccc4O)[C@H](O)c3ccc(c(Cl)c3)Oc3cc2cc(c3O[C@@H]2O[C@H](CO)[C@@H](O)[C@H](O)[C@H]2O[C@H]2C[C@](C)(N)[C@H](O)[C@H](C)O2)Oc2ccc(cc2Cl)[C@H]1O : 1

Below: the item to evaluate.
Dear colleague, I am looking for the recorded MIC of partner antibiotic in the presence of PFOB at 16 mg/L of the following compound: C[C@@H](O)[C@H]1C(=O)N2C(C(=O)O)=C(SCCN=CN)C[C@H]12 0.125
